Consider the following binders; for each one, report its pKd.
biological target: T1, human CD3 epsilon (Acro Cat #CDE-H5223) (human, UniProt P07766 23-126); assay: SPR (Biacore), antibody captured, human CD3 epsilon analyte
T1 construct: Bought recombinant protein; also called rhCD3E
T1 sequence (P07766 23-126 limits assumed): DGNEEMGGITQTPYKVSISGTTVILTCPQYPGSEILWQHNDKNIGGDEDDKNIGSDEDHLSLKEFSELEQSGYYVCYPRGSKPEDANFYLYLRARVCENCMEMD
Answers are plain numbers, as −log10 of the molar value.

Some binders with recorded pKd:
{"columns": ["binder", "measured value"],
 "data": [
  ["2037-B10_Hc-N30D (antibody, human IgG1, lambda, V domains shown, human IgG1, lambda; also called SRP 2037 N30D; 2037-B10_VH-N30D) VH: EVQLVESGGGLVKPGGSLRLSCAASGFTFDKYAMNWVRQAPGKGLEWVARIRTKYNNYATYYADSVKDRFTISRDDSKNTAYLQMNSLKTEDTAVYYCVRHGNFGNSYISYWAYWGQGTPVTVSS VL: QTVVTQEPSLTVSPGGTVTLTCGSSTGAVTSGYYPNWLQQKPGQAPRGLIGGTKFLAPGTPARFSGSLLGGKAALTLSGVQPEDEAEYYCALWYSNRWVFGGGTQLTVTG", 9.44],
  ["2037-B10_Hc-Y55D (antibody, human IgG1, lambda, V domains shown, human IgG1, lambda; also called SRP 2037 Y55D; 2037-B10_VH-Y55D) VH: EVQLVESGGGLVKPGGSLRLSCAASGFTFNKYAMNWVRQAPGKGLEWVARIRTKDNNYATYYADSVKDRFTISRDDSKNTAYLQMNSLKTEDTAVYYCVRHGNFGNSYISYWAYWGQGTPVTVSS VL: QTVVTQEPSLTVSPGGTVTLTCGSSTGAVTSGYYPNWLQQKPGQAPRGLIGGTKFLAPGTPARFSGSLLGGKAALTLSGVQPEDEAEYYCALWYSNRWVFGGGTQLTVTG", 8.88],
  ["2037-B10_Hc-F29D (antibody, human IgG1, lambda, V domains shown, human IgG1, lambda; also called SRP 2037 F29D; 2037-B10_VH-F29D) VH: EVQLVESGGGLVKPGGSLRLSCAASGFTDNKYAMNWVRQAPGKGLEWVARIRTKYNNYATYYADSVKDRFTISRDDSKNTAYLQMNSLKTEDTAVYYCVRHGNFGNSYISYWAYWGQGTPVTVSS VL: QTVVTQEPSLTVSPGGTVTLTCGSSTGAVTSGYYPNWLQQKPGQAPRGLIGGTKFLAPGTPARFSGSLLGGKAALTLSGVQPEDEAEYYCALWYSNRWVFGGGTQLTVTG", 8.63],
  ["2037-B10_Hc-N103D (antibody, human IgG1, lambda, V domains shown, human IgG1, lambda; also called SRP 2037 N103D; 2037-B10_VH-N103D) VH: EVQLVESGGGLVKPGGSLRLSCAASGFTFNKYAMNWVRQAPGKGLEWVARIRTKYNNYATYYADSVKDRFTISRDDSKNTAYLQMNSLKTEDTAVYYCVRHGDFGNSYISYWAYWGQGTPVTVSS VL: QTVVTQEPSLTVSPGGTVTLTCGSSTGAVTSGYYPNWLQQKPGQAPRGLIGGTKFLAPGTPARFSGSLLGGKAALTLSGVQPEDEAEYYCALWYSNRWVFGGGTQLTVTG", 7.07]
]}

Now let's try a different one.
Look up pKd: 2037-B10_Hc-S107D (antibody, human IgG1, lambda, V domains shown, human IgG1, lambda; also called SRP 2037 S107D; 2037-B10_VH-S107D) VH: EVQLVESGGGLVKPGGSLRLSCAASGFTFNKYAMNWVRQAPGKGLEWVARIRTKYNNYATYYADSVKDRFTISRDDSKNTAYLQMNSLKTEDTAVYYCVRHGNFGNDYISYWAYWGQGTPVTVSS VL: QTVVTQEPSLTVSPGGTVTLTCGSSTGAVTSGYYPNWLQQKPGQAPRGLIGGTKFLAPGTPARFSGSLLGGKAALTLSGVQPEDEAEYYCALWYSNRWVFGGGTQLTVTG
8.83
